Origin of measurements: the supplement of paper PMC10567573

- TEST_PROTOCOL: protein stability index of a GFP-peptide fusion (GPS, HEK-293T) (PSI 1-6); higher = more stable;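 note: 24-mer peptide tiles fused after GFP, lentivirally expressed, FACS-sorted into six equal bins by GFP/DsRed ratio, decoded by Illumina sequencing, PSI is the read-weighted mean bin number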
- CONDITION_DETAILS: treatment: MLN4924 1 uM, 8 h; c terminus: a fixed tail appended
The reader will find reported protein stability index values listed item by item below.
RECORDED_METRIC: protein stability index

> print(dat)
                    primary.sequence          recorded.metric  reading
1     RQGIQLNKTPGAPESSALQPPPQS [WAS]  protein stability index      4.8
2   LGDPPPLLTLPRPPLSGALASITE [HDAC6]  protein stability index     4.41
3    EAAGGDHETESTSDKETDIDDRYG [CDS1]  protein stability index     5.62
4  QDIAQEISEAFSQRVGFGDDFDED [CHMP4C]  protein stability index      5.5
5   RPENRSFYLALYKQMSFLEKRGCP [TCF25]  protein stability index     2.19
6  DRGDYYLEGYRDNAYKDLAWKHGN [PCMTD1]  protein stability index     3.29
7    LKLARKAYHDPMLKLSIMSEEELT [NET1]  protein stability index     3.14

====

The reader will find reported protein stability index values listed item by item below.
- TEST_PROTOCOL: protein stability index of a GFP-peptide fusion (GPS, HEK-293T) (PSI 1-6); higher = more stable
- CONDITION_DETAILS: treatment: MLN4924 1 uM, 8 h; c terminus: a fixed tail appended
RECORDED_METRIC: protein stability index

> print(dat)
                       primary.sequence  reading
 1    AFHRKSHSLDLNISEKLTLLPTLY [RNF180]      2.1
 2     HCWDVAGAGIIVTEAGGVLMDVTG [IMPA1]     2.52
 3       VAALVVNFSQPVAGRPSLLRHDEV [NLN]     2.48
 4     HPGSGTKVQFNLQFTKPNASLGDV [SASS6]     3.23
 5    PNVIDNFLCDLYPLLKLACTNTYV [OR4A15]     3.12
 6      TTCSTPLLNSPPSFVCWSRGFMEM [AUP1]     2.33
 7  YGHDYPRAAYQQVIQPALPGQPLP [TRAF3IP2]     3.25
 8   AGINTHSNEFKESALTLACYKGHL [ANKRD17]     2.86
 9      VYSVSVDQKERCIIVRTTNKKYYK [DPCD]     2.21
10   QDTEVFSWSDNERSSSRINIPERA [FAM104B]     4.53
11    NLISLLALRVLAEQNIIPSATNVT [TENT5C]     3.12
12      FHLGLEDILMEEEEGVVGGLSGGA [TFE3]      4.3
13    SGDDKNSNYFSMDSMEGKRSPYAG [TRIM29]     4.61

====

- TEST_PROTOCOL: protein stability index of a GFP-peptide fusion (GPS, HEK-293T) (PSI 1-6); higher = more stable
- CONDITION_DETAILS: treatment: DMSO; c terminus: a fixed tail appended
Response key: met means protein stability index >= 3; not met means protein stability index < 3.

> print(dat)
                       primary.sequence  category.label
 1     LTLSGIKEDNSLLNQGFLQAKPEK [MYBL2]             met
 2   ARGEDRAGPQSPSPGAPPAAKPAR [TSPAN10]             met
 3       SWLTRRAIRPENRAPGAGLGQDRQ [EMD]             met
 4      HIDPDVLYPSLNVTSFDSVVPEKL [ALG2]             met
 5     KLQDLIKDVLRYGEEQLKTHKKCK [FCHO1]         not met
 6    ERGLKKIRLGIEGYPTYKEKVKKR [BTBD10]             met
 7   QQIAMDPEEVKSLDSNGAGEKSEN [BCL2L13]             met
 8    SGCLRISIQKLSNESRYMIYEFWE [NECAB1]         not met
 9    LAIDAIHQLGFIHRDIKPDNLLLD [STK38L]         not met
10    PKAERLRWSPAQEESFRQMVVIHK [ZNF232]             met
11    LVETAIQSLDEPGGATFLLTAKQL [TRIM63]         not met
12     ESSAKSKINVNEIFYDLVRQINRK [RAP1B]         not met
13      KKPLAGSVDEQNALREVYAHAVLG [WEE1]             met
14      PDAETLKVMKQPRCGVPDVAQFVL [MMP1]         not met
15     RLVGKTPIETLIRDMLLSGSSFNW [NR2F2]             met
16    ARKQDMNTKRAIHTLAVMNDRLYA [KLHL14]         not met
17     RPENRSFYLALYKQMSFLEKRGCP [TCF25]         not met
18      ATDGARPQALPEPMQESKAEGNNQ [CHGA]             met
19     RELTGLKALYETELADARRALDDT [LMNB1]             met
20    KKVHKGTVPKNDADDESETPEELE [GLT8D2]             met
21      AIHSSDEDEDEDDEEDFEDDDEWE [WASL]             met
22      GKTAASWCLHVNNWLQVSFTAKHA [FSD1]             met
23    QAIFHAVDQYLALPDVSLGRYAYV [MCOLN1]             met
24     YARQHCPLKNPTFLDYVRPRSWTC [SOAT1]         not met
25     ALCMLAQSSPSFAEKCLDFLVDMF [INTS4]         not met
26     YNSSRFGEGVERELFVREPTGRLP [MYORG]             met
27    TSPSPERSLLLKYARTPTLDPDTM [TRIM14]             met
28   IQPGPFRAVLKYLYTGELDENERD [RHOBTB2]             met
29     RRPHELLPVGGRLPGPTRPVLGRR [HAGHL]             met
30  DNSTMGYMMAKKHLEINPDHPIVE [HSP90AB1]             met
31    TGRHYWEVDVQEAGAGWWVGAAYA [TRIM14]         not met
32    ASGSTQRQPPPPAPQHPQPGSQAL [FBXO28]             met
33      PLNCAPCPRRSEPVVQCQYPSGAE [IRX6]             met
34      QVPEEMSRCRNSYTEQELKPLTLE [DLC1]             met
35    KPYKCQQCDKRFRWSSDLNKHLTT [ZNF75A]         not met
36  LAREGVAAFYKGYVPNMLGIIPYA [SLC25A25]         not met
37      EKRLEGQEEEEDNRDSSMKLSFRA [CHGA]             met
38   RSPLVSGDESSLLLNAASTVARPV [RHOBTB3]             met
39     KRRRKSCQACRFMKCLKVGMLKEG [ESRRG]         not met
40     FEDPRDAEDAVYGRDGYDYDGYRL [SRSF1]             met
41    SQTEAHYSCQSKEILRYMKEFTLL [P2RY14]         not met
42   HVNFSHLTTKDYMEMYNVIMTVKE [SLC6A17]         not met
43     HLVEETRIHVLPSLNPDGYEKAYE [CPXM2]             met
44   CLELVSCFVLFSLTHTHTHTPNHR [ANKRD44]         not met
45    DYIIRNTDRGNDNWLIKYDCPMDS [PI4K2A]         not met
46     GCSAVLSGGSSSSFRAGSKGLSGG [KRT71]             met
47      ERLERAVSDRLAPGAPRGNPPKAS [MYCL]             met
48     PQVFVSNKINAGMYILSPAVLRRI [GMPPB]         not met
49     ESESPQSHRAAGSGVSDYDYLDLD [TRIM9]             met

====

- TEST_PROTOCOL: protein stability index of a GFP-peptide fusion (GPS, HEK-293T) (PSI 1-6); higher = more stable
- CONDITION_DETAILS: treatment: DMSO; c terminus: a fixed tail appended
The reader will find reported protein stability index values listed item by item below.
RECORDED_METRIC: protein stability index

> print(dat)
                       primary.sequence  reading
 1     IAGGLAGMGGIQNEKETMQSLNDR [KRT18]     4.83
 2     YYSDKYDDEEFEYRHVMLPKDIAK [CKS1B]     3.81
 3   CSSPGVQACSLPASCCIDPREDGA [TSPAN10]     4.69
 4  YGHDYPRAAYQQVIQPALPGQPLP [TRAF3IP2]     2.55
 5    NWGQDPGVSANASKAWHQKSHFQN [PBXIP1]     2.94
 6    ILVVTVQLILFGLSNQLAVTFREE [MCOLN1]     3.02
 7    NKHLTTHQGIKPYKCSWCGKSFSQ [ZNF75A]     2.35
 8      VLKYFSHYMEENLMDGGDLPSVTD [PLK2]     2.75
 9   VGDALEEVLSKALSQRTITVGVYE [GADD45A]     2.54
10     GKPPTAHLDRTSVSSLSEVEEVDM [ELOA2]     5.51
11     VLGGNLQGGELVVAYPYDLVRSPW [CPXM2]     2.13
12      QQNEDLRRMAESLRIPEGPIDQGP [FUT8]     4.96
13      STQEPQSPREGEELKPEDKDPRDP [GNAS]     5.59
14     SHLLVAEPEKIYAMPDPTVPDSDI [ESRRG]     5.04
15  ESPRWLYSQGRLSEAEEALYLIAK [SLC22A15]     2.75
16     DAPLHSVGYTTLVGNNHESWGWDL [SPSB1]      2.9
17   AVVKGIQSSGKVMYFSSLFPYVVL [SLC6A17]     3.09
18       CAGSTALQEPGEPQGPPASPSCPE [PXN]     5.15
19    PQKASAPAADPPRYTFAPSVSLNK [PDLIM7]     4.33
20      DFYRCGYCKNESGSRSNGMWAHSM [ATE1]     2.56
21     LKPEKSYSFVLTNRGNSAGGLQHR [PTPRD]     3.08
22     RAGKMLMTLPLLRQTSTKAVQHFY [ESRRG]     2.28
23    DKLDGNELDLSLSDLNEVPVKELA [LRRC59]     5.26
24      PSPDMECADVPLLTPSSKEMMSQA [ETS1]     5.15
25      MAVAQQLRAESDFEQLPDDVAISA [NCF4]     4.89
26   SSSINSPDRASGPEGSLSQTMAGS [FAM104A]        5
27      YAHQMVRTDSREQKLDAFLQPLSK [MLH1]     2.98
